experiment: NCI Yeast Anticancer Drug Screen. Data for the mlh1 rad18 strain (AID 175); settings: S. cerevisiae mlh1 rad18 strain growth inhibition; at 50.0 µM; hits give high values
About 79,000 compounds went through this panel and 15% of them were active in at least one assay; those are over-represented in the sample as a whole. Activity calls are given as the source filed them. No stated cut-off is given here; in the data, active means growth inhibition above about 70%; inactive means the rest.
Measurement kind: growth inhibition

For the compound shown here, COc1ccc(/C=C/c2cnc3ccccc3n2)cc1OC , give the reported growth inhibition.
81% (active)

Could you share which growth inhibition value was measured for Cc1ccccc1N(C(=O)C(=O)O)c1ccccc1C ?
0.15% (inactive)

Look up growth inhibition: CN1OC(CO)CC12C1CC3CC(C1)CC2C3 (stereo not given)
-53.8% (inactive)

Consider the compound COC(=O)c1cccc(C)c1C(=O)c1ccc(C)cc1C and give its measured growth inhibition.
57.2% (inactive)

Query: growth inhibition; subject: CC(=O)Nc1cc(N)ccc1C
-14.3% (inactive)

I would be grateful if you could share the reported growth inhibition for Cc1ccc(N=NC2Sc3nc4ccccc4n3C2=O)cc1 (stereo not given) .
13.2% (inactive)

Any idea what growth inhibition was measured for CCCC(P(c1ccccc1)c1ccccc1)P(=O)(c1ccccc1)c1ccccc1 (stereo not given) ?
29.1% (inactive)

Requested read-out: growth inhibition. Entry: O=C(CC1C(=O)Nc2ccccc2S1=O)Nc1cccc(Cl)c1 (stereo not given)
-25.2% (inactive)

Suppose we examine the compound OCCc1cc2ccccc2c2ccccc12 ; what growth inhibition value has been reported?
-12.9% (inactive)

Sample FC(F)(F)C(Cl)=C(Cl)Cl — what was its growth inhibition?
-1.75% (inactive)

Entry under review: O=C(NCSC1=NCCS1)NCSC1=NCCS1 . Reported growth inhibition?
-14.8% (inactive)

What measured growth inhibition goes with Cc1cc(=O)[nH]c(NN2C(Cl)C(=O)C2c2ccc(Cl)cc2)n1 (stereo not given) ?
-18.4% (inactive)

Fill in the blank: the reported growth inhibition of COc1ccc2nc(C3CCCCC3C(=O)O)cc(C)c2c1 (stereo not given) is ____.
-1.45% (inactive)

Which growth inhibition is listed for COC1O[C@H]2CCN(C(=O)OCc3ccccc3)[C@H]2[C@H]1OCc1ccccc1 (stereo not given in full) ?
44.5% (inactive)

Looking for the measured growth inhibition of CCCS(=O)(=O)N1CCCC1 , can you help?
-19.4% (inactive)

What does the record list as growth inhibition for FC1=C2C3CCC(C3)C2C1(F)F (stereo not given) ?
17.1% (inactive)

Value lookup for growth inhibition; key = Cc1nc(C)c(N2CCN(C#N)CC2)c(=O)[nH]1
-40.2% (inactive)

I'd like to know its growth inhibition. The compound in question is COc1cc(C2(C)OC(=O)c3ccccc32)c(OC)c2ccccc12 (stereo not given)
14.2% (inactive)

Recorded growth inhibition of CSc1ccc2c(cc1=O)[C@@H](NC(=O)c1ccc([N+](=O)[O-])cc1)CCc1cc(O)c(O)c(O)c1-2 , please.
50% (inactive)

Consider the compound shown here: CC(=O)Oc1cccc(O)c1 What is its recorded growth inhibition?
3% (inactive)

For the compound O=C(NC1CCCCC1NC(c1ccccc1)(c1ccccc1)c1ccccc1)C(=O)NC1CCCCC1NC(c1ccccc1)(c1ccccc1)c1ccccc1 (stereo not given) , what growth inhibition is on record?
-2.35% (inactive)

Could you tell me which growth inhibition is on file for CC(N=C(N)N)C(=O)O (stereo not given) ?
14% (inactive)

I am curious: what growth inhibition value has been reported for Cc1c2oc3c(C)ccc(C(=O)NCCN4CCOCC4)c3nc-2c(C(=O)NCCN2CCOCC2)c(N)c1=O ?
15.8% (inactive)

Consider the compound shown here: CNc1nc2c(s1)c1c(O)c3c(O)c(C)c4c(c32)C(=O)C(C)(O/C=C/C(OC)C(C)C(OC(C)=O)C(C)C(O)C(C)C(O)C(C)/C=C/C=C(/C)C(=O)N1)O4 (stereo not given) What is its recorded growth inhibition?
20.5% (inactive)

Would you mind telling me what growth inhibition value was observed for CCCCOC(=O)c1cc2ccccc2oc1=O ?
34% (inactive)

I have this compound here, CCN(CC)CCOCCN(CC)CC , and I need its recorded growth inhibition.
9.55% (inactive)

Any idea what its growth inhibition is? The compound is Cc1nc2ccc(-c3ccccc3)cc2nc1C
3.7% (inactive)

Query (compound): NC(=O)N/N=C/c1ccncc1 ; field requested: growth inhibition
7.45% (inactive)

What value of growth inhibition has been reported for the following compound? O=c1n(CCO)nc2n1CCCN2
5.6% (inactive)

Need growth inhibition, item COc1cc(C=Nc2ccc(C)c(Cl)c2)ccc1OC(=O)c1ccccc1
-0.3% (inactive)

Given the compound CC1(CC2(c3ccccc3)NC(=O)NC2=O)NC(=O)NC1=O (stereo not given) , what is its reported growth inhibition?
5.65% (inactive)

What measured growth inhibition goes with CCOC(=O)CCC(Cl)(Cl)Cl ?
9.2% (inactive)

Suppose we examine the compound CCC(C)OC(=O)CC(c1ccccc1)N1CCCCC1 (stereo not given) ; what growth inhibition value has been reported?
-4.5% (inactive)

# query: growth inhibition of entry CCOC(=O)C(C(=O)CC)=P(c1ccccc1)(c1ccccc1)c1ccccc1
23.2% (inactive)

# growth inhibition lookup, item CC(C)C1CC(N(C)C)=CC(=O)N1 (stereo not given)
10.9% (inactive)

Record request: growth inhibition value, item COc1c(C)c(OCC=C(C)C)cc(CO)c1CO
-84.5% (inactive)

Report growth inhibition for O=C(O)Cn1c(=O)ccc2ccccc21 please.
4.9% (inactive)

// lookup growth inhibition for CC(=O)c1ccc2ccccc2c1O
-5.45% (inactive)

State the recorded growth inhibition for this entry: CCOc1ccccc1C1=CCCCCC1
1.3% (inactive)

Need growth inhibition, item CC(=O)c1c(-c2ccc(Cl)cc2)c(-c2ccc(Cl)cc2)nn(CCN)c1=O
93% (active)

# get_value(readout='growth inhibition', item= COc1ccc(NC(=O)COc2cc(Cl)c(Cl)cc2Cl)cc1 )
-17.9% (inactive)

Recorded growth inhibition for O=C(O)CC1CC(=O)c2cccn21 (stereo not given) , please?
-34% (inactive)

I'd like to know its growth inhibition. The compound in question is COc1ccc(C(c2cc3c(cc2O)OCO3)N2CCCCC2)c(OC)c1 (stereo not given)
-6.95% (inactive)

Tell me the measured growth inhibition of COc1ccc2ccccc2c1Br , please.
8.65% (inactive)

What does the data say about its growth inhibition? Entry: O=C1OC(=O)C2C3C=CC(C4C=C(C5CC5)C43)C12 (stereo not given)
5.2% (inactive)

Fill in the blank: the reported growth inhibition of O=C1Nc2ccc3[nH]ncc3c2C1=O is ____.
7.6% (inactive)

Query (compound): CC12CCC(NC(=O)C3CCCN3C(=O)OCc3ccccc3)CC1CCC1C2CCC2(C)C(NC(=O)C3CCCN3C(=O)OCc3ccccc3)CCC12 (stereo not given) ; field requested: growth inhibition
-3.2% (inactive)

Returns the measured growth inhibition for the input compound. Input: CN(C)c1ccc(/C=N\NC(=S)Nc2ccc3cn[nH]c3c2)cc1
-9.5% (inactive)

I would be grateful if you could share the reported growth inhibition for CC(=O)Nc1cc(=O)[nH]c2c1CCC2 .
-4.7% (inactive)

So what's the measured growth inhibition for this one? NC(=O)N/N=C1\CCCCC12CCCCC2
-11.4% (inactive)

* * *

experiment: NCI Yeast Anticancer Drug Screen. Data for the sgs1 mgt1 strain (AID 161);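 further: 0% = growth of cultures given vehicle only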; conditions: S. cerevisiae sgs1 mgt1 strain, at 50.0 µM
This is part of a sample that, as a whole, favours compounds with a hit. Of some 79,000 tested, about 15% had one in any assay. Activity calls are given as the source filed them. Cut-off read from the data, not from the text of the source: active = growth inhibition above about 70%; inactive = the rest.
Write down one outcome, taken from 1.0 (active), 0.0 (inactive)

What is the recorded call for this compound in the test? COC(=O)/C=C(/C(=O)OC)C1(C)c2cc(C(=O)OC)c(C(=O)OC)c(N)c2C(=N)N1c1ccccc1 (configuration not stated)
0.0

Answer briefly: the call reported for Clc1ccc2c(c1)[nH]c1c2nc2sccn21 in this assay.
0.0

# fetch the recorded call for CC(C)(C)NNC(=O)/C(=C/c1ccc([N+](=O)[O-])cc1)NC(=O)c1ccccc1 here
0.0

Please state the recorded outcome for this compound: N#CCc1ccc(C(C#N)C(=O)CCC(=O)C(C#N)c2ccc(CC#N)cc2)cc1 (configuration not stated)
0.0

Short answer needed: outcome of this test for CCC(C#N)NC(=O)NC(C#N)CC (configuration not stated) ?
0.0

Assay outcome for O=C1CC(c2ccccc2)C(c2ccccc2)C1C(=O)OC1CCCCC1 (configuration not stated) : what was it?
0.0

Outcome logged for CCOC(O)C(F)(F)C(F)(F)C(F)(F)F (configuration not stated) in this assay:
0.0

// param item: Clc1ccc(Cl)c(-c2csc(-c3cccnc3)n2)c1 ; yields the recorded call
0.0

Tell me the recorded outcome of this test for CCOC(=O)c1c(O)[nH]c(=O)c(CC)c1C .
0.0

Give the logged outcome of this assay for the following compound: CCN(CC)c1cccc(C(=O)OCCNCC(C)C)c1
0.0

Would you mind telling me which call this test gave Cc1ccc2ccccc2c1CC(=O)O ?
0.0

Please share the test call associated with COc1c(O)c2c3c(cc(C)cc3c1C(C)C)OC2 .
1.0

Could you kindly confirm the outcome this assay logged for CC(C)=CCC/C(C)=C/C=O ?
0.0

Check the results log: what was the call for O=C(Cc1nc2ccc(C(=O)c3ccccc3)cc2[nH]c1=O)C(=O)Nc1nc2ccccc2[nH]1 ?
0.0

What classification did Cc1cccc(C)c1NC(=O)CCC(=O)NC(N)=NC#N end up with in this test?
0.0

For COC(=O)C(/C(=N/NC(=O)c1ccncc1)C(=O)Nc1ccccc1OC)c1nc2ccc(Cl)cc2[nH]c1=O (configuration not stated) , which call appears in the assay record?
0.0

Recorded test call requested for COc1ccc(C23C(=O)c4ccccc4N2O[C@H]2C(=O)N(c4ccccc4)C(=O)[C@H]23)cc1 (some centres not stated)
0.0

So what was the verdict on COc1cc(C2SC(N)=Nc3c2c(C)nn3C(=O)c2ccc(Cl)cc2)ccc1O (configuration not stated) in this test?
0.0

Per the assay record, what outcome was assigned to COC(=O)C(=O)C(C(C)=O)C(=O)C(=O)Nc1ccc(C)cc1C (configuration not stated) ?
0.0

I'd appreciate the recorded outcome for Clc1ccccc1NCSC1=NCCS1 from this test.
0.0

What call does the record list for O=C(OCc1ccccc1)N(CCCCN(CCCNC(=O)C(F)(F)F)C(=O)OCc1ccccc1)CCCNC(=O)C(F)(F)F ?
0.0

So what was the verdict on O=C1CCC(=O)N1Cc1ccccc1N=[N+]([O-])c1ccccc1CN1C(=O)CCC1=O in this test?
0.0
